Test system: MS2 coat protein
Assay: apparent KD of MS2 coat protein; designed switch direction (-1 OFF switch, 1 ON switch): 1; higher = weaker reporter binding
Settings: Eterna round: R95; input ligand: microRNA oligo, concentration not stated
Assign apparent KD of MS2 coat protein to each entry below.
Report only the number, with the unit nM understood.

The sequence listed as AUUAAACAUGAGGAUCACCCAUGUCAACAAAGUCGAGGAUAUGGGCAAAUAAAAUAAUAACCAGAAGGCGAAUAAU [salish99_ss1_r3_065] (puzzle: Same State 1) has a reported apparent KD of MS2 coat protein of 353

The sequence listed as CGGCGCUGUCGAGAGGAUAUGCGGUGAUGGACAUGAGGAUCACCCAUGUUAGCGAUAGCAUUACGGUAGAAGGCUCUACAGUUGC [Soteed Omei mod 8] (puzzle: Same State 2) has a reported apparent KD of MS2 coat protein of 74.9

The sequence listed as CUCAAACAUGAGGAUCACCCAUGUGUUGUCAUGGGAGGAUAUCCCAGUUCGUUGUCGUCGGGAGAAGGCCUAUGUC [× ×•×ª×• ×ž×“×™× ×” × ×—×ª-14] (puzzle: Same State 1) has a reported apparent KD of MS2 coat protein of 55.9

The measured values listed here are drawn from the supplement of paper PMC9170038.
